Reference source: patent US9822157B2

# MEASURED TARGET: human ferroportin (Homo sapiens, UniProt Q9NP59)
# Sequence (Q9NP59 whole entry): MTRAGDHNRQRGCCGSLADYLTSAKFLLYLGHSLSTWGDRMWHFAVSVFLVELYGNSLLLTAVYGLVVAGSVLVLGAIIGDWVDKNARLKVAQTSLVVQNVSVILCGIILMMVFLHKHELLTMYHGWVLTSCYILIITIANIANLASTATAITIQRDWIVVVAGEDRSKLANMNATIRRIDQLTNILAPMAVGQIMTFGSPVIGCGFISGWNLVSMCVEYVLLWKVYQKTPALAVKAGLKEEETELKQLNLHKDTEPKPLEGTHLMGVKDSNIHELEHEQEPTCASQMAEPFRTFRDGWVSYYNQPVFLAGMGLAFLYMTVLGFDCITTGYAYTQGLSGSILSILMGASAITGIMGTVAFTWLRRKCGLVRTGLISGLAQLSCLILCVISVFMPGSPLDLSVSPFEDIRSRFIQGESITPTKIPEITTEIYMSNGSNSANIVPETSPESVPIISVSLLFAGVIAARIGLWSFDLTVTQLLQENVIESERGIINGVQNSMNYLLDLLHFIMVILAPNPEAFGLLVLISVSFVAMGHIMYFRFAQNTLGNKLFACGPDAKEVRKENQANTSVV
# Assay type: cell-based
# TEST PARAMETERS: Hepcidin analog peptides

# SUBSTANCE, MEASURED TARGET, Potency EC50 (nM)
measured = [
    ("H-DTHFPIAIFAAICI-NH2 [Compound 270]", "human ferroportin (Homo sapiens, UniProt Q9NP59)", "Inactive"),
    ("H-DTHFPIICI-NH2 [Compound 275]", "human ferroportin (Homo sapiens, UniProt Q9NP59)", "Inactive"),
    ("H-DTHFPIAIICI-NH2 [Compound 273]", "human ferroportin (Homo sapiens, UniProt Q9NP59)", "Inactive"),
    ("H-DTHAPCIIF-NH2 [Compound 282]", "human ferroportin (Homo sapiens, UniProt Q9NP59)", "Inactive"),
    ("Hy-DTHF-[Sarc]-CIIFGPRSKGWVCK-NH2 [Compound 127]", "human ferroportin (Homo sapiens, UniProt Q9NP59)", "Inactive"),
    ("Isovaleric acid-THFPCIIFGPRSKGWVCK-NH2 [Compound 98]", "human ferroportin (Homo sapiens, UniProt Q9NP59)", "Inactive"),
    ("H-DTHFPIAIFICI-NH2 [Compound 272]", "human ferroportin (Homo sapiens, UniProt Q9NP59)", "Inactive"),
    ("H-DTHICIAIF-NH2 [Compound 276]", "human ferroportin (Homo sapiens, UniProt Q9NP59)", "Inactive"),
]
